Data origin, for the record: ChEMBL document CHEMBL5252659

Assay: Aqueous kinetic solubility of compound in PBS at pH 7.4 incubated for 24 hrs by Chemiluminescent nitrogen determination assay
Assay type: physicochemical
Conditions: buffer, pH 7.4, 24 h
Task for the reader: assign each of the following compounds its reported log10(Kinetic_solubility).
Heads up: the numbers are on a log10 scale; they represent Kinetic_solubility in µM.

Specify measured log10(Kinetic_solubility) for "O=C(O)c1ccc2c(c1)nc(Nc1ccc(F)c(Cl)c1)c1ncncc12" .
1.69

Specify measured log10(Kinetic_solubility) for "O=C(O)c1ccc2c(c1)nc(Nc1ccc(F)c(Cl)c1)c1ccncc12" .
2.17

Specify measured log10(Kinetic_solubility) for "O=C(O)c1ccc2c(c1)nc(NCCc1cccc(F)c1)c1ncncc12" .
2.17

Specify measured log10(Kinetic_solubility) for "O=C(O)c1ccc2c(c1)nc(NCCc1ccccc1)c1ncncc12" .
2.17

Specify measured log10(Kinetic_solubility) for "O=C(O)c1ccc2c(c1)nc(NCCc1cccc(Cl)c1)c1ncncc12" .
2.04

Specify measured log10(Kinetic_solubility) for "O=C(O)c1ccc2c(c1)nc(Nc1ccccc1Cl)c1ncncc12" .
2.09

Specify measured log10(Kinetic_solubility) for "O=C(O)c1ccc2c(c1)nc(Nc1ccc3ccccc3c1)c1ncncc12" .
1.73

Specify measured log10(Kinetic_solubility) for "O=C(O)c1ccc2c(c1)nc(Nc1ccc3ccccc3c1)c1ccncc12" .
1.52

Specify measured log10(Kinetic_solubility) for "O=C(O)c1ccc2c(c1)nc(Nc1cccc(Cl)c1)c1ccncc12" .
2.44

Specify measured log10(Kinetic_solubility) for "N#Cc1cccc(Nc2nc3cc(C(=O)O)ccc3c3cncnc23)c1" .
1.82

Specify measured log10(Kinetic_solubility) for "O=C(O)c1ccc2c(c1)nc(Nc1ccc(Cl)cc1)c1ccncc12" .
1.40

Specify measured log10(Kinetic_solubility) for "N#Cc1cccc(Nc2nc3cc(C(=O)O)ccc3c3cnccc23)c1" .
2.12

---

Molecular target: Casein kinase II subunit alpha' (Homo sapiens)
Sequence (P19784 whole entry, the tested form may be a part): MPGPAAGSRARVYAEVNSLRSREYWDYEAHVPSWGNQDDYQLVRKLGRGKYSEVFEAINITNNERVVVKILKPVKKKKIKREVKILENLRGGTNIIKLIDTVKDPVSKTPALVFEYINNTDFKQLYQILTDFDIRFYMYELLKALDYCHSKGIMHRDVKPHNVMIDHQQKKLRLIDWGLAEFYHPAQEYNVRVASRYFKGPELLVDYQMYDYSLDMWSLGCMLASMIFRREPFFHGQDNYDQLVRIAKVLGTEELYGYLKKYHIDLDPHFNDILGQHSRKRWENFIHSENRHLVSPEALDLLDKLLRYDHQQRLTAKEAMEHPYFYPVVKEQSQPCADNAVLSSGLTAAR
Assay: Inhibition of wild type human CK2alpha' in presence of ATP by radiometric kinase assay
Reported Property: IC50

Specify measured IC50 for "O=C(O)c1ccc2c(c1)nc(NCc1ccccc1)c1ncccc12" .
> 10 µM

---

Biological target: Casein kinase II subunit alpha (Homo sapiens, UniProt P68400)
Sequence (P68400 whole entry, the tested form may be a part): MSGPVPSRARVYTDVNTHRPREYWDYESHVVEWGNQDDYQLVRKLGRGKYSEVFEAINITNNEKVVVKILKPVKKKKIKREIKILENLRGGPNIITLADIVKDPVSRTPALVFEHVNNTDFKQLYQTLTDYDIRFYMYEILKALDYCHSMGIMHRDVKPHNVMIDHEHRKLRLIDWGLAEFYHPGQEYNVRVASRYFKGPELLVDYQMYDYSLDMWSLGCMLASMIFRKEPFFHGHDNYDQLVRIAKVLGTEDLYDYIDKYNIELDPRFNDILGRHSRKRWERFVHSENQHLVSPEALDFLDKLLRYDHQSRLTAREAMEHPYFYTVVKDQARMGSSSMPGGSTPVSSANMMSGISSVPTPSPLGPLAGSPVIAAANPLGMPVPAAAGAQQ
Assay: Inhibition of C-terminal Nano-Luc fused human CK2alpha expressed in HEK293 cells using NanoBRET NanoGlo substrate in presence of tracer K10 by NanoBRET assay
Assay type: cell-based
Reported Property: IC50

Specify measured IC50 for "O=C(O)c1ccc2c(c1)nc(NCc1ccccc1)c1ncccc12" .
> 10 µM

---

Assay: Aqueous kinetic solubility of compound in PBS at pH 7.4 incubated for 24 hrs by Chemiluminescent nitrogen determination assay
Format: physicochemical
Details: PBS, pH 7.4, read-out: Kinetic_solubility
Reported Property: solubility kinetic at 24 h (µM)
Field: numeric (µM). Do not append units.

Specify measured solubility kinetic at 24 h for "O=C(O)c1ccc2c(c1)nc(NCCc1cccc(Cl)c1)c1ccncc12" .
184

Specify measured solubility kinetic at 24 h for "O=C(O)c1ccc2c(c1)nc(Nc1cccc(F)c1)c1ccncc12" .
237

Specify measured solubility kinetic at 24 h for "O=C(O)c1ccc2c(c1)nc(NCCc1ccccc1)c1ccncc12" .
171

Specify measured solubility kinetic at 24 h for "O=C(O)c1ccc2c(c1)nc(Nc1cccc(F)c1)c1ncncc12" .
192

Specify measured solubility kinetic at 24 h for "O=C(O)c1ccc2c(c1)nc(Nc1ccccc1)c1ccncc12" .
184

Specify measured solubility kinetic at 24 h for "COc1cccc(Nc2nc3cc(C(=O)O)ccc3c3cnccc23)c1" .
190

Specify measured solubility kinetic at 24 h for "O=C(O)c1ccc2c(c1)nc(NCc1ccccc1)c1ccncc12" .
202

Specify measured solubility kinetic at 24 h for "O=C(O)c1ccc2c(c1)nc(NCCc1cccc(F)c1)c1ccncc12" .
188

Specify measured solubility kinetic at 24 h for "O=C(O)c1ccc2c(c1)nc(Nc1ccc(Cl)cc1)c1ncncc12" .
209

Specify measured solubility kinetic at 24 h for "O=C(O)c1ccc2c(c1)nc(Nc1ccccc1)c1ncncc12" .
168

Specify measured solubility kinetic at 24 h for "COc1cccc(CCNc2nc3cc(C(=O)O)ccc3c3cncnc23)c1" .
152

Specify measured solubility kinetic at 24 h for "O=C(O)c1ccc2c(c1)nc(NCc1ccccc1)c1ncncc12" .
211

Specify measured solubility kinetic at 24 h for "COc1cccc(CCNc2nc3cc(C(=O)O)ccc3c3cnccc23)c1" .
180

---

Molecular target: Casein kinase II subunit alpha' (Homo sapiens)
Experiment: Inhibition of C-terminal Nano-Luc fused human CK2alpha' expressed in HEK293 cells using NanoBRET NanoGlo substrate in presence of tracer K5 by NanoBRET assay
Type: cell-based
pIC50: −log10 of the molar value.
Reported Property: pIC50

Specify measured pIC50 for "O=C(O)c1ccc2c(c1)nc(NCc1ccccc1)c1ncccc12" .
< 5.00

---

Molecular target: Homeodomain-interacting protein kinase 2 (Homo sapiens)
Sequence (Q9H2X6 whole entry): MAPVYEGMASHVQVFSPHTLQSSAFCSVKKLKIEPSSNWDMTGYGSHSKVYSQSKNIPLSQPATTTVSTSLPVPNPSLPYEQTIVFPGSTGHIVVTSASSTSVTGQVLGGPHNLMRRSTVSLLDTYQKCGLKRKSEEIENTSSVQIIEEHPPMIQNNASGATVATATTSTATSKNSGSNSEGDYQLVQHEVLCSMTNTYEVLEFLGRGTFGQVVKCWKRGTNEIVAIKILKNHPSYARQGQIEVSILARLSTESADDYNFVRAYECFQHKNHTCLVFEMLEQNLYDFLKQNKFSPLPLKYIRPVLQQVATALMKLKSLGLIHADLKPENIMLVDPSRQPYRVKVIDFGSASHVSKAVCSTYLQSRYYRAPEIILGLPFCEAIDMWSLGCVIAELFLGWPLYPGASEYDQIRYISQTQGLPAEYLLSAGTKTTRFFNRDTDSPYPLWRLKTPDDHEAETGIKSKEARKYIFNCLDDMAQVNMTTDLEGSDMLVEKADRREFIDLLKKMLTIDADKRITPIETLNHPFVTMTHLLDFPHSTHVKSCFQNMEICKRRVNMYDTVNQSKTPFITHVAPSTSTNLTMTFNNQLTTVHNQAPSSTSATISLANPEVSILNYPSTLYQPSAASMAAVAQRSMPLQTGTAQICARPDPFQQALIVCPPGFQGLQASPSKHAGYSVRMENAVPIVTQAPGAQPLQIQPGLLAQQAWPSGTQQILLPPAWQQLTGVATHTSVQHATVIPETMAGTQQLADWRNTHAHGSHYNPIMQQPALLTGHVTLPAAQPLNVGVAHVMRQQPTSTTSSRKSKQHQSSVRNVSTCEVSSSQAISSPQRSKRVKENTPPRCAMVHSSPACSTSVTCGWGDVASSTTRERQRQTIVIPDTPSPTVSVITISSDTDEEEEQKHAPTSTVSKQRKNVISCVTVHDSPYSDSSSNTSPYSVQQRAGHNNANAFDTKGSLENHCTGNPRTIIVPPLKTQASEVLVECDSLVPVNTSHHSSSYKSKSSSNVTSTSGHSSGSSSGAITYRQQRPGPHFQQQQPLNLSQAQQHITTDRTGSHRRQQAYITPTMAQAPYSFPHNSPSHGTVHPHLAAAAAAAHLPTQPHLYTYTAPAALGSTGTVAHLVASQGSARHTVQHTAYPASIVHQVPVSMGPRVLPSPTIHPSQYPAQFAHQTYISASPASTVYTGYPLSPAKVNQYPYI
Reported Property: IC50
Include the unit right after the number.

Specify measured IC50 for "O=C(O)c1ccc2c(c1)nc(NCc1ccccc1)c1ncncc12" .
600 nM
